Every entry's value here was drawn from paper PMC7540527.

Reported MIC for target or system E. faecalis 15376 VanA, by entry.
# unit: µg/mL | format: bare number

Observe how each entry below is paired with its result.
- CC(C)C[C@H](C(=O)N[C@H]1C(=O)N[C@@H](CC(N)=O)C(=O)N[C@H]2C(=O)N[C@H]3C(=O)N[C@H](C(=O)N[C@H](C(=O)O)c4cc(O)cc(O)c4-c4cc3ccc4O)[C@H](O)c3ccc(c(Cl)c3)Oc3cc2cc(c3O)Oc2ccc(cc2Cl)[C@H]1O)n1cc(COCCOCCOCCOCCOCCCC(F)(F)C(F)(F)C(F)(F)C(F)(F)C(F)(F)C(F)(F)C(F)(F)C(F)(F)F)nn1: 256
- CC(=O)NC1C(OC2c3ccc(c(Cl)c3)Oc3cc4cc(c3O)Oc3ccc(cc3Cl)CC3NC(=O)C(n5cc(COCCOCCOCCOCCOCCCC(F)(F)C(F)(F)C(F)(F)C(F)(F)F)nn5)c5ccc(O)c(c5)Oc5cc(O)cc(c5)C(NC3=O)C(=O)NC4C(=O)NC3C(=O)NC2C(=O)NC(C(=O)O)c2cc(O)cc(O)c2-c2cc3ccc2O)OC(CO)C(O)C1O (stereo not drawn): 2

Turning to the following compound.
Identify measured MIC corresponding to CC(C)C[C@H](C(=O)N[C@H]1C(=O)N[C@@H](CC(N)=O)C(=O)N[C@H]2C(=O)N[C@H]3C(=O)N[C@H](C(=O)N[C@H](C(=O)O)c4cc(O)cc(O)c4-c4cc3ccc4O)[C@H](O)c3ccc(c(Cl)c3)Oc3cc2cc(c3O)Oc2ccc(cc2Cl)[C@H]1O)n1cc(COCCOCCOCCOCCOCCCC(F)(F)C(F)(F)C(F)(F)C(F)(F)F)nn1 16
